- test: Selective index, ratio of IC50 for human NHDF cells to EC50 for Trypanosoma brucei brucei
- Format: toxicity
- condition.set: read-out: Ratio IC50/EC50
attribute.measured: selectivity ratio

Here are 6 compounds. What values of selectivity ratio were reported for them?
1. Nc1ncnc2c1ccn2[C@@H]1O[C@H](CO)[C@@H](F)[C@H]1O
2. Nc1ncnc2c1c(-c1ccco1)cn2[C@@H]1O[C@H](CO)[C@@H](F)[C@H]1O
3. Nc1ncnc2c1c(I)cn2[C@@H]1O[C@H](CO)[C@@H](F)[C@H]1O
4. Nc1ncnc2c1c(-c1cccs1)cn2[C@@H]1O[C@H](CO)[C@@H](F)[C@H]1O
5. Nc1ncnc2c1c(-c1ccc(Cl)cc1)cn2[C@@H]1O[C@H](CO)[C@@H](F)[C@H]1O
6. Nc1ncnc2c1c(Br)cn2[C@@H]1O[C@H](CO)[C@@H](F)[C@H]1O

Ans.
1: > 1.7; 2: > 6; 3: > 666; 4: > 2; 5: > 20; 6: > 208
